FYI, the data here is from ChEMBL document CHEMBL5154897.

EXPERIMENT_DESCRIPTION: Antiproliferative activity against mouse Ba/F3 EGFR-H773-V774ins_NPH cells measured after 72 hrs by CellTiter-Glo assay
Assay type: functional, cell-based
CONDITION: time 72 hrs
REPORTED_PROPERTY: GI50 (nM)
Give the number; nM is assumed, so skip it.

See these solved cases before continuing.
QUERY: Name the recorded GI50 for CN(C)C/C=C/C(=O)Nc1cc2c(Nc3ccc(F)c(Cl)c3)ncnc2cc1O[C@H]1CCOC1 .
RESULT: 161

QUERY: Name the recorded GI50 for C=CC(=O)N1CCC(Oc2cc3c(Nc4ccc(Cl)c(Cl)c4F)ncnc3cc2OC)CC1 .
RESULT: 2

QUERY: Name the recorded GI50 for C=CC(=O)Nc1cc(-c2c(-c3ccc(N4CCN(C)CC4)cc3)[nH]c3nccc(Cl)c23)ccc1C .
RESULT: 48

***
QUERY: Name the recorded GI50 for C=CC(=O)Nc1cc(Nc2nccc(-c3cn(C)c4ccccc34)n2)c(OC)cc1N(C)CCN(C)C .
RESULT: 192

QUERY: Name the recorded GI50 for C=CC(=O)Nc1cc(-c2c(-c3ccc(N4CCN(C)CC4)cc3)[nH]c3ncc(C(=O)OC(C)C)cc23)ccc1C.O=C(O)C(F)(F)F .
RESULT: 83

====

EXPERIMENT_DESCRIPTION: AUC (0 to infinity) in FVB mouse at 30 mg/kg, po measured upto 480 mins by LC/MS analysis
Assay type: ADME, organism-based
Parameters: time < 480 min, dose 30 mg/kg, route po
CONDITION: in vivo
REPORTED_PROPERTY: AUC(0-inf) (ng·h/mL)
Give the number; ng·h/mL is assumed, so skip it.

QUERY: Name the recorded AUC(0-inf) for C=CC(=O)Nc1cc(-c2c(-c3ccc(N4CCN(C)CC4)cc3)[nH]c3nccc(Cl)c23)ccc1C .
RESULT: 2080

====

EXPERIMENT_DESCRIPTION: Metabolic stability in mouse liver microsomes assessed as intrinsic clearance at 1 uM in presence of NADP by LC-MS/MS analysis
Format: ADME, Microsome
CONDITION: read-out: CLH
REPORTED_PROPERTY: microsomal CLint at 1 µM (µL/min/mg)
Give the number; µL/min/mg is assumed, so skip it.

QUERY: Name the recorded microsomal CLint at 1 µM for C=CC(=O)Nc1cc(-c2c(-c3ccc(N4CCN(C)CC4)cc3)[nH]c3nccc(Cl)c23)ccc1C .
RESULT: 93

====

EXPERIMENT_DESCRIPTION: Antiproliferative activity against mouse Ba/F3 EGFR-H773-V774ins_NPH cells measured after 72 hrs by CellTiter-Glo assay
Assay type: functional, cell-based
CONDITION: 72 h
Each entry falls in a class defined on EC50; the bands are low range (below 90 nM), mid range (90 nM to below 200 nM), high range (200 nM or more)

Example entries and their recorded answers appear below.
QUERY: For the record C=CC(=O)Nc1cc(-c2c(-c3ccc(N4CCN(C)CC4)cc3)[nH]c3nccc(OC)c23)ccc1C , report the class its EC50 corresponds to.
RESULT: low range

QUERY: For the record C=CC(=O)Nc1cc(-c2c(-c3ccc(N4CCN(C)CC4)cc3)[nH]c3ncc(C(=O)OC(C)C)cc23)ccc1C.O=C(O)C(F)(F)F , report the class its EC50 corresponds to.
RESULT: mid range

QUERY: For the record C=CC(=O)Nc1cc(-c2c(-c3ccc(N4CCN(C)CC4)cc3)[nH]c3ncc(C(=O)NCc4ccccc4)cc23)ccc1C , report the class its EC50 corresponds to.
RESULT: high range

QUERY: For the record C=CC(=O)Nc1cc(-c2c(-c3ccc(N4CCN(C)CC4)cc3)[nH]c3ncc(C(=O)OC)cc23)ccc1C , report the class its EC50 corresponds to.
RESULT: high range

QUERY: For the record C=CC(=O)Nc1cc(-c2c(-c3ccc(N4CCN(C)CC4)cc3)[nH]c3ncc(C(=O)NCCC)cc23)ccc1C , report the class its EC50 corresponds to.
RESULT: mid range

QUERY: For the record C=CC(=O)Nc1cc(-c2c(-c3ccc(N4CCN(C)CC4)cc3)[nH]c3nccc(Cl)c23)ccc1C , report the class its EC50 corresponds to.
RESULT: low range

QUERY: For the record C=CC(=O)N1CCC(Oc2cc3c(Nc4ccc(Cl)c(Cl)c4F)ncnc3cc2OC)CC1 , report the class its EC50 corresponds to.
RESULT: low range

Now turn to the next molecule.
QUERY: For the record CN(C)C/C=C/C(=O)Nc1cc2c(Nc3ccc(F)c(Cl)c3)ncnc2cc1O[C@H]1CCOC1 , report the class its EC50 corresponds to.
RESULT: mid range

====

EXPERIMENT_DESCRIPTION: Oral bioavailability in FVB mouse at 30 mg/kg measured upto 480 mins by LC/MS analysis
Type: ADME, organism-based
CONDITION: in vivo
REPORTED_PROPERTY: bioavailability (%)
Give the number; % is assumed, so skip it.

QUERY: Name the recorded bioavailability for C=CC(=O)Nc1cc(-c2c(-c3ccc(N4CCN(C)CC4)cc3)[nH]c3nccc(Cl)c23)ccc1C .
RESULT: 59

====

EXPERIMENT_DESCRIPTION: Half-life in FVB mouse at 30 mg/kg, po measured upto 480 mins by LC/MS analysis
Assay type: ADME, organism-based
CONDITION: in vivo
REPORTED_PROPERTY: half-life (h)
Give the number; h is assumed, so skip it.

QUERY: Name the recorded half-life for C=CC(=O)Nc1cc(-c2c(-c3ccc(N4CCN(C)CC4)cc3)[nH]c3nccc(Cl)c23)ccc1C .
RESULT: 2.1

====

# pEC50 listing for each entry below
EXPERIMENT_DESCRIPTION: Antiproliferative activity against mouse Ba/F3 EGFR-H773-V774ins_NPH cells measured after 72 hrs by CellTiter-Glo assay
Type: functional, cell-based
CONDITION: 72 h
Scale: pEC50 equals -log10([C]), with [C] in mol/L.

See these solved cases before continuing.
QUERY: Name the recorded pEC50 for C=CC(=O)Nc1cc(-c2c(-c3ccc(N4CCN(C)CC4)cc3)[nH]c3ncc(CC(=O)OC(C)C)cc23)ccc1C .
RESULT: 6.69

QUERY: Name the recorded pEC50 for C=CC(=O)Nc1cc(-c2c(-c3ccc(N4CCN(C)CC4)cc3)[nH]c3ncc(C#N)cc23)ccc1C .
RESULT: 7.05

Note: attention shifts to another entry.
QUERY: Name the recorded pEC50 for C=CC(=O)Nc1cc(Nc2nccc(-c3cn(C)c4ccccc34)n2)c(OC)cc1N(C)CCN(C)C .
RESULT: 6.70
